Tested on: Salmonella paratyphi
protocolNotes: Antibacterial activity against Salmonella enterica subsp. enterica serovar Paratyphi A after 18 hr by serial dilution method
Assay type: functional
Below is a list of entries, each paired with its recorded MIC value.
Number only, in µg/mL; omit the unit.

1) COc1cc(C2C(Cl)C(=O)N2NC(=O)NCC(=O)N2c3ccccc3Sc3ccccc32)ccc1O (stereo not given) ... 125
2) CN(C)c1ccc(C2C(Cl)C(=O)N2NC(=O)NCC(=O)N2c3ccccc3Sc3ccccc32)cc1 (stereo not given) ... 250
3) COc1ccc(C2C(Cl)C(=O)N2NC(=O)NCC(=O)N2c3ccccc3Sc3ccccc32)cc1 (stereo not given) ... 125
4) O=C(NCC(=O)N1c2ccccc2Sc2ccccc21)NN1C(=O)C(Cl)C1c1ccc(O)cc1 (stereo not given) ... 62.5

[in] # return MIC for `O=C(O)c1cn(C2CC2)c2cc(N3CCNCC3)c(F)cc2c1=O` , test system: Salmonella paratyphi
[out] 125

====

Tested on: Micrococcus luteus
protocolNotes: Antibacterial activity against Micrococcus luteus after 24 hr by disk diffusion method; further: test concentration or dose not given here
Format: functional
measurementKind: diameter of the inhibition zone (DIZ) (mm)
Number only, in mm; omit the unit.

1. O=C(NCC(=O)N1c2ccccc2Sc2ccccc21)NN1C(=O)C(Cl)C1c1cccc(F)c1 (configuration not stated) ... 7
2. CN(C)c1ccc(C2C(Cl)C(=O)N2NC(=O)NCC(=O)N2c3ccccc3Sc3ccccc32)cc1 (configuration not stated) ... 5
3. O=C(NCC(=O)N1c2ccccc2Sc2ccccc21)NN1C(=O)C(Cl)C1c1ccc(Cl)cc1 (configuration not stated) ... 5
4. O=C(NCC(=O)N1c2ccccc2Sc2ccccc21)NN1C(=O)C(Cl)C1c1ccccc1Cl (configuration not stated) ... 7
5. O=C(O)c1cn(C2CC2)c2cc(N3CCNCC3)c(F)cc2c1=O [CIPROFLOXACIN] ... 16

[in] Tell me diameter of the inhibition zone (DIZ) reported for O=C(NCC(=O)N1c2ccccc2Sc2ccccc21)NN1C(=O)C(Cl)C1c1cccc(Cl)c1 (configuration not stated)
[out] 5

[in] Tell me diameter of the inhibition zone (DIZ) reported for COc1cc(C2C(Cl)C(=O)N2NC(=O)NCC(=O)N2c3ccccc3Sc3ccccc32)ccc1O (configuration not stated)
[out] 8
